Entry source: patent US8148404B2

molecular target: human CB1 receptor (Homo sapiens, UniProt P21554); construct: membranes used; experiment: Cannabinoid Receptor-1 functional assay: inhibition of CP55940-induced [35S]GTPγS binding to membranes of CHO-K1 cells expressing human CB1; conditions: 3 nM CP55940, [35S]GTPγS SPA, hCB1 membranes; read-out: IC50 value for antagonizing a CB1 receptor agonist
Sequence (P21554 whole entry): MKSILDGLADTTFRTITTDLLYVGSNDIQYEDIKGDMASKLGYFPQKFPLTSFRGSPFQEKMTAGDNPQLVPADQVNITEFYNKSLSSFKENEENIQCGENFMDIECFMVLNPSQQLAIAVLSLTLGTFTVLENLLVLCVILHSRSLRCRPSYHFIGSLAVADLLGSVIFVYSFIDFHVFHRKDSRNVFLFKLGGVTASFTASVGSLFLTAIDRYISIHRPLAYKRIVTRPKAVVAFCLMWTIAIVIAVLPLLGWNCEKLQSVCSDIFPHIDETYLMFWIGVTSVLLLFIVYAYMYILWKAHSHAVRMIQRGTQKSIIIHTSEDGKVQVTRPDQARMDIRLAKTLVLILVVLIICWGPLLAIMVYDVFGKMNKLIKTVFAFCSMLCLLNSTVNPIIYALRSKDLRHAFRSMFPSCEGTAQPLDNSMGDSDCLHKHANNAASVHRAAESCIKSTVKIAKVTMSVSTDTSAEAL
reported.endpoint: IC50

For this molecule ( O=C(O)Cc1c(C(=O)N2CC(Oc3ccc(F)cc3)C2)nn(-c2ccccc2Cl)c1-c1ccc(Cl)cc1 [[1.60]] ), measured IC50 is < 300 nM

For this molecule ( O=C(O)Cc1c(C(=O)N2CCC(O)(c3ccc(F)c(C(F)(F)F)c3)CC2)nn(-c2ccccc2Cl)c1-c1ccc(Cl)cc1 [[1.42]] ), measured IC50 is < 300 nM

For this molecule ( O=C(c1nn(-c2ccccc2Cl)c(-c2ccc(Cl)cc2)c1Cc1nn[nH]n1)N1Cc2ccc(F)cc2C1 [Compound [3.1]] ), measured IC50 is 300 to 3000 nM

For this molecule ( O=C(O)Cc1c(C(=O)N2CCC(O)(c3cccc(C(F)(F)F)c3)CC2)nn(-c2ccccc2Cl)c1-c1ccc(Cl)cc1 [[1.11]] ), measured IC50 is < 300 nM

For this molecule ( O=C(O)Cc1c(C(=O)N2CCC(O)(c3ccccn3)CC2)nn(-c2ccccc2Cl)c1-c1ccc(Cl)cc1 [[1.9]] ), measured IC50 is 300 to 3000 nM

For this molecule ( Cc1ccc(C2(O)CCN(C(=O)c3nn(-c4ccccc4Cl)c(-c4ccc(Cl)cc4)c3CC(=O)O)CC2)nc1 [[1.22]] ), measured IC50 is 300 to 3000 nM

For this molecule ( O=C(O)Cc1c(C(=O)N2CC=C(c3ccccc3)CC2)nn(-c2ccccc2Cl)c1-c1ccc(Cl)cc1 [Compound [1.1]] ), measured IC50 is < 300 nM
